# TARGET OR TEST SYSTEM: human ribonuclease H1 (Homo sapiens, UniProt O60930)
# Construct: made in house; host or cells: E. coli
# Sequence (O60930 1-286): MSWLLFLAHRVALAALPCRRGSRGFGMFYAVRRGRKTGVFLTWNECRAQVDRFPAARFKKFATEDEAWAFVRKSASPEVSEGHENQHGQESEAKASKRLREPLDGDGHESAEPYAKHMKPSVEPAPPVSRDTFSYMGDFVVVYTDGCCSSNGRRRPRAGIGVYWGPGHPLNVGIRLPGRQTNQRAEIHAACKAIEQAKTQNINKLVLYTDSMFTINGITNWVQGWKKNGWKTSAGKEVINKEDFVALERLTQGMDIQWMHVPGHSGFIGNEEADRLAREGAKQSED
# METHOD DESCRIPTION: biochemical
# Format: biochemical
# strict inequality: IC50 < 80 µM yields T, everything else yields F

Confirm or reject: IC50 of "O=c1c(O)ccc(-c2ccco2)cc1O" lies strictly below 80 µM T

Could you please tell me whether IC50 recorded for "Cc1cc(O)c(=O)c(O)cc1C(=O)c1ccccc1O" is less than 80 µM? T

In plain terms, does "Cc1cc(O)c(=O)c(O)cc1C(=O)Nc1ccccc1" come in under 80 µM for IC50? F

Problem: For the molecule Cc1cc(O)c(=O)c(O)cc1C(=O)NC(CCC(=O)OC(C)(C)C)C(=O)OC(C)(C)C (stereo not drawn) , is IC50 under 80 µM? F

IC50 strictly < 80 µM for this molecule? "Cc1cc(O)c(=O)c(O)cc1C(=O)NCc1ccccc1" F

Lab note: IC50 threshold 80 µM. Does this molecule come in strictly under it? "Cc1cc(O)c(=O)c(O)cc1C(=O)c1ccc(Br)cc1" T

Please indicate whether the reported IC50 of "CCCCCCSc1cccc(O)c(=O)c1O" is strictly below 80 µM. T

State whether 80 µM exceeds IC50 recorded for "COC(=O)c1c(C)cc(O)c(=O)c(O)c1O" . F

Quick check: IC50 of "CC(=O)c1c(C)cc(O)c(=O)c(O)c1Br" under 80 µM? T

Determine if "CC(=O)c1c(C)cc(O)c(=O)c(O)c1-c1ccccc1" shows IC50 strictly lower than 80 µM. F

Take the molecule CC1=CC(O)N(O)C(O)=C1/C(C)=N/c1ccccc1N (stereo not drawn) and say whether its IC50 is less than 80 µM. F

I wonder whether "Cc1cc(O)c(=O)c(O)cc1C(=O)c1ccccc1" has IC50 below 80 µM. Can you tell? T

Regarding "C/C(=N\c1ccc(C(F)(F)F)cc1)c1c(C)cc(=O)n(O)c1O" , kindly confirm whether its IC50 is beneath 80 µM. F

Just wondering, is IC50 of "C/C(=N\c1cccc(Oc2ccccc2)c1)c1c(C)cc(=O)n(O)c1O" below 80 µM? F

# strict comparison: is reported IC50 < 80 µM? input = "Cc1cc(O)c(=O)c(O)cc1C(=O)c1ccc(-c2ccncc2)cc1" F

Say whether its IC50 is strictly beneath 80 µM. Entry: "Cc1ccc(Sc2cccc(O)c(=O)c2O)cc1" F

Take the molecule "Cc1cc(O)c(=O)c(O)cc1C(=O)c1ccc(-c2ccccc2)cc1" and say whether its IC50 is less than 80 µM. F

# TODO verify IC50 < 80 µM strictly for this molecule: "Cc1ccc(O)c(=O)c(O)c1" F

# TODO verify IC50 < 80 µM strictly for this molecule: "CSc1cccc(O)c(=O)c1O" F

Confirm or reject: IC50 of "CCCCSc1ccc(SCCCC)c(O)c(=O)c1O" lies strictly below 80 µM F
